Provenance of the data: patent US20170362324A1

- Tested on: T1, human soluble αvβ5 protein (extracellular domains of human αv and β5 integrin subunits) (human, UniProt P06756 31-992; P18084 24-719)
- T1 construct: also called biotin-αvβ5; hsαvβ5
- T1 sequence (P06756 31-992 limits assumed, chain 1 of 2): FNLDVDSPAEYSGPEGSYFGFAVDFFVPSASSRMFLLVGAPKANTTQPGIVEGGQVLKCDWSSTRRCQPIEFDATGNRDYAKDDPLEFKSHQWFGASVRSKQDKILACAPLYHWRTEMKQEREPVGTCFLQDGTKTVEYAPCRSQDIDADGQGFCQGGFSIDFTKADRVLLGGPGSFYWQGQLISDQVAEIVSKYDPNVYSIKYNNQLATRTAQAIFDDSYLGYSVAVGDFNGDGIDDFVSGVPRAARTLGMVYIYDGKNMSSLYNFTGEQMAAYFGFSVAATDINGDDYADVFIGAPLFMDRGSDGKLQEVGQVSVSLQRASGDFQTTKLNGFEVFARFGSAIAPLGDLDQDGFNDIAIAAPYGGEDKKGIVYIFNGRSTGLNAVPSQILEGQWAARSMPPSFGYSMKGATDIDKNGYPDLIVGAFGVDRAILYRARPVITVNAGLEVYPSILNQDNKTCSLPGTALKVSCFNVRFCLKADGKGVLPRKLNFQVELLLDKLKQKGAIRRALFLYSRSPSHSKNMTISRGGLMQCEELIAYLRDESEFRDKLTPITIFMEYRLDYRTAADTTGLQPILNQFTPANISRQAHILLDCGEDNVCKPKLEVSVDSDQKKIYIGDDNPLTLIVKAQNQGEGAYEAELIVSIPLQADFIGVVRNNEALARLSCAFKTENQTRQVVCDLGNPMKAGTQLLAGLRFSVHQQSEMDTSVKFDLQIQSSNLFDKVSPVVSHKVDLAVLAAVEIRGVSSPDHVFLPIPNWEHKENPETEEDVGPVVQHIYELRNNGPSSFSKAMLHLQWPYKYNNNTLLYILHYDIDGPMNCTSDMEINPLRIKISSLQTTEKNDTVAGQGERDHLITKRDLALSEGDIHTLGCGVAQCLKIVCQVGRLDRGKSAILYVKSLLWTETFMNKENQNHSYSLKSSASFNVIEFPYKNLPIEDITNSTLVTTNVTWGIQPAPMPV
- T1 sequence (P18084 24-719 limits assumed, chain 2 of 2): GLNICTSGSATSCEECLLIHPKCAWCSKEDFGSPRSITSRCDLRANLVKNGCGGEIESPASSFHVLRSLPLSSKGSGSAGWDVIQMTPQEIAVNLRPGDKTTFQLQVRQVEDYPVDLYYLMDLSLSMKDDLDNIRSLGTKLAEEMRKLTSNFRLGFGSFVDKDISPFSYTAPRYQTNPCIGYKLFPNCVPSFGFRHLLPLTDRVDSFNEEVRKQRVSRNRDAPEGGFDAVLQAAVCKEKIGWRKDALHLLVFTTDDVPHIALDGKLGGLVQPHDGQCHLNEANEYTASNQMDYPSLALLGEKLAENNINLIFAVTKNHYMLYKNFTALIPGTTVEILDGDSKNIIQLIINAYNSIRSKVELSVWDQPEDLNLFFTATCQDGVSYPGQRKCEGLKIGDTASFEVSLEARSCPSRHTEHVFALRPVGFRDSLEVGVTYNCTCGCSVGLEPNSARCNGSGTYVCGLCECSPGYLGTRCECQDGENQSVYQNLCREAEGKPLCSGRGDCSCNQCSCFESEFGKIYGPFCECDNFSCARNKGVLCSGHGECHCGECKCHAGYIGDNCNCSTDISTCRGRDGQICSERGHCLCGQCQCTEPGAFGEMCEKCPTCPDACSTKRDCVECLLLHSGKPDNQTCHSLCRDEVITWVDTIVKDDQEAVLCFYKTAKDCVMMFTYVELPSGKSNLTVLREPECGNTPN
- Test summary: competition ELISA against 1 nM murine ALULA on coated soluble human αvβ5
Recorded endpoint: pIC50
Answer as the number alone; pIC50 is minus log10 of concentration in mol/L.

According to the records, this binder VH2/VL0 Agly-hIgG1(T299A) (antibody, V domains shown, also called H2/L0) VH: EVQVVQSGGGLVKPGESLRLSCAASGYTFTSYWMHWVKQAPGKGLEWVGAIYPGNSDTSYNQKFKGKFTISADTSSNTAYLQMNSLKTEDTAVYYCTTTTYGYDWFAYWGQGTLVTVSS VL: DIQMTQSPSSVSASVGDRVTITCKSSQSVLYSSNQKNYLAWYQQKPGKAPKLLIYWASTRESGVPSRFSGSGSGTDFTLTISSLQPEDFATYYCHQYLSSLTFGQGTKVEIK displays pIC50 of 8.47
